# experiment-description: MTT assay, Hek293T non-leukemic control cells
# Format: cell-based
# study-conditions: human, Hek293T cells (non-leukemic control cell line), 70 μM, read-out: Viability rate
measured-attribute: viability at 24 h, 70 µM (%)
Numbers only, in %.

COc1ccc(CN2CCN(Cc3ccc(C(=O)Nc4ccc(C)c(Nc5nccc(C)n5)c4)cc3)CC2)c(OC)c1OC [Compound 6] ... 48.8

Value sought for every listed compound: viability at 24 h, 70 µM.
1. Cc1ccc(NC(=O)c2ccc(CN3CCN(c4ncccn4)CC3)cc2)cc1Nc1cnccn1 [Compound 7]
2. Cc1ccnc(Nc2cc(NC(=O)c3ccc(CN4CCN(c5ncccn5)CC4)cc3)ccc2C)n1 [Compound 5]
3. Cc1ccc(NC(=O)c2ccc(CN3CCN(C)CC3)cc2)cc1Nc1nccc(-c2cccnc2)n1 [imatinib, reference compound]

Outgoing:
1: 64.2; 2: 52.7; 3: 42.9

Could you report viability at 24 h, 70 µM for every entry in the following list?
1. Cc1ccnc(Nc2cc(NC(=O)c3ccc(CN4CCOCC4)cc3)ccc2C)c1 [Compound 9]
2. Cc1ccnc(Nc2cc(NC(=O)c3ccc(CN4CCOCC4)cc3)ccc2C)n1 [Compound 8]
3. COc1ccc(CN2CCN(Cc3ccc(C(=O)Nc4ccc(C)c(Nc5cc(C)ccn5)c4)cc3)CC2)c(OC)c1OC [Compound 10]

Outgoing:
56.2
66.9
80.2

* * *

Would you kindly list viability at 150 µM for each of these compounds?
# Tested on: Reh
# experiment-description: MTT assay, Reh cells
# Type: cell-based
# study-conditions: Homo sapiens, 24 h, 150 μM, read-out: Viability rate
Give bare numbers, in %.

Here are 4 compounds together with their reported answers.
Cc1ccc(NC(=O)c2ccc(CN3CCN(c4ncccn4)CC3)cc2)cc1Nc1cnccn1 ... 66.8
Cc1ccnc(Nc2cc(NC(=O)c3ccc(CN4CCOCC4)cc3)ccc2C)n1 ... 91.1
Cc1ccc(NC(=O)c2ccc(CN3CCN(C)CC3)cc2)cc1Nc1nccc(-c2cccnc2)n1 [imatinib, reference compound] ... 60.3
Cc1ccnc(Nc2cc(NC(=O)c3ccc(CN4CCOCC4)cc3)ccc2C)c1 ... 85

Go through the items and report each one's viability at 150 µM.
1. COc1ccc(CN2CCN(Cc3ccc(C(=O)Nc4ccc(C)c(Nc5nccc(C)n5)c4)cc3)CC2)c(OC)c1OC
2. COc1ccc(CN2CCN(Cc3ccc(C(=O)Nc4ccc(C)c(Nc5cc(C)ccn5)c4)cc3)CC2)c(OC)c1OC

Outgoing:
1: 61.3; 2: 57.4

Incoming: // viability at 150 µM lookup, key: Cc1ccnc(Nc2cc(NC(=O)c3ccc(CN4CCN(c5ncccn5)CC4)cc3)ccc2C)n1
Outgoing: 79.1

* * *

# experiment-description: MTT assay, Hek293T non-leukemic control cells
# Format: cell-based
# study-conditions: human, Hek293T cells (non-leukemic control cell line), 3 μM, read-out: Viability rate
measured-attribute: viability at 24 h, 3 µM

Look over these answered cases.
COc1ccc(CN2CCN(Cc3ccc(C(=O)Nc4ccc(C)c(Nc5cc(C)ccn5)c4)cc3)CC2)c(OC)c1OC ... 80.4%
Cc1ccc(NC(=O)c2ccc(CN3CCN(c4ncccn4)CC3)cc2)cc1Nc1cnccn1 ... 84.6%
Cc1ccnc(Nc2cc(NC(=O)c3ccc(CN4CCOCC4)cc3)ccc2C)n1 ... 92.9%

Incoming: // returns reported viability at 24 h, 3 µM for input Cc1ccnc(Nc2cc(NC(=O)c3ccc(CN4CCOCC4)cc3)ccc2C)c1
Outgoing: 87.4%

Data credit: paper PMC10734772
